molecular target: HIV-1 reverse transcriptase p66/p51 (HIV-1, UniProt P03366;P03366 600-1159;600-1039); experiment: filter binding
Would you kindly list binding signal for each of these binders?

binder: TCGTGT (XNA, LNA at position 1) [Hex-S3D-LNA]
binding signal: 4.3 relative binding (unit not printed)

For every listed record, write down its binding signal.
1. CGACCG (ssDNA) [Hex-S1D]
2. CGACCG (XNA, fully 2'-OMe) [Hex-S1D-2'OMe]
3. CGACCG (XNA, phosphorothioate) [Hex-S1D-PS]

1. 5.8 relative binding (unit not printed)
2. 0.5 relative binding (unit not printed)
3. 18.3 relative binding (unit not printed)
